System: Leishmania major
Protocol Summary: Antileishmanial activity against amastigotes form of Leishmania major MRHO/IR/75/ER infected in mouse peritoneal macrophage assessed as decrease in macrophage infectivity after 24 hrs
Format: functional, organism-based
The source made the active and inactive calls. No cut-off for these calls is given here.
Value Type: Activity

1. N#Cc1ccc(N2CCN(c3nnc(-c4ccc([N+](=O)[O-])o4)s3)CC2)cc1 : Active
2. CNC(=N)c1ccc(N2CCN(c3nnc(-c4ccc([N+](=O)[O-])o4)s3)CC2)cc1.Cl : Active
3. COc1ccc(CNC(=N)c2ccc(N3CCN(c4nnc(-c5ccc([N+](=O)[O-])o5)s4)CC3)cc2)cc1.Cl : Active
4. CCCNC(=N)c1ccc(N2CCN(c3nnc(-c4ccc([N+](=O)[O-])o4)s3)CC2)cc1.Cl : Active
5. CCOC(=N)c1ccc(N2CCN(c3nnc(-c4ccc([N+](=O)[O-])o4)s3)CC2)cc1 : Active
6. CCC(C)NC(=N)c1ccc(N2CCN(c3nnc(-c4ccc([N+](=O)[O-])o4)s3)CC2)cc1.Cl (stereo not drawn) : Active
7. Cl.N=C(NCc1ccccc1)c1ccc(N2CCN(c3nnc(-c4ccc([N+](=O)[O-])o4)s3)CC2)cc1 : Active
8. CCNC(=N)c1ccc(N2CCN(c3nnc(-c4ccc([N+](=O)[O-])o4)s3)CC2)cc1.Cl : Active
